- MEASURED TARGET: α-glucosidase (Saccharomyces cerevisiae)
- Sequence (P53341 whole entry): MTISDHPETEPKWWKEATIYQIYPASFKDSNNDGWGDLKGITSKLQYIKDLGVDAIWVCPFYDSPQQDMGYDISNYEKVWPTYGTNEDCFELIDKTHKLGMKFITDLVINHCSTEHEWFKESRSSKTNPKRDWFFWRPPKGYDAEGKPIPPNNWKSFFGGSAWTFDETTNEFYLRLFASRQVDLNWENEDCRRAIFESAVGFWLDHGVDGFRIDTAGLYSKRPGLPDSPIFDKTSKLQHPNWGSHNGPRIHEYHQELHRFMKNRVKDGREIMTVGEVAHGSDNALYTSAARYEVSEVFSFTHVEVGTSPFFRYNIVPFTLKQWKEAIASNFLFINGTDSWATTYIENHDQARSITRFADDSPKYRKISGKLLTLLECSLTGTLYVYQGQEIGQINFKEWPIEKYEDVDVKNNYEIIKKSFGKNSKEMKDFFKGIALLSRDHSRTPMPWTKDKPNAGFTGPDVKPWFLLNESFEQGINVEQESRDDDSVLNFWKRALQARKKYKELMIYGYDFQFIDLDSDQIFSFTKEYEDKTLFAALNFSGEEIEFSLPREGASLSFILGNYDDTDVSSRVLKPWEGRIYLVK
- PROTOCOL SUMMARY: In vitro α-glucosidase inhibition assay (p-NPG hydrolysis, 405 nm)
- Format: biochemical
- Design: dose or concentration left out as unconfirmed
- MEASUREMENT CONTEXT: read-out: The Degree of Inhibition of α-Glucosidase Activity; mean ± standard error of the mean, triplicate
Returns the class for an entry based on its inhibition. Class ranges: class A = under 30%, class B = from 30% up to 70%, class C = 70% and over

Some entries whose results are on file:
CHEMICAL SMILES	MEASURED TARGET	LABEL
Cc1cc(-c2cccs2)c(NC(=O)c2nnc(/C=C/C(=O)O)s2)c(=O)[nH]1	α-glucosidase (Saccharomyces cerevisiae)	class A
Cc1cc(-c2ccccc2)c(NC(=O)c2nnc(CCCC(=O)O)s2)c(=O)[nH]1	α-glucosidase (Saccharomyces cerevisiae)	class C
Cc1cc(C)c(NC(=O)c2nnc(CCC(=O)O)s2)c(=O)[nH]1	α-glucosidase (Saccharomyces cerevisiae)	class B

Form field 'band' for "Cc1cc(-c2cccs2)c(NC(=O)c2nnc(CCC(=O)O)s2)c(=O)[nH]1"
class B

Class for "Cc1cc(-c2cccs2)c(NC(=O)c2nnc(CCCC(=O)O)s2)c(=O)[nH]1" ?
class C

Please indicate the class for "Cc1cc(-c2ccccc2)c(NC(=O)c2nnc(CCC(=O)O)s2)c(=O)[nH]1" based on its inhibition.
class C

# bin lookup: classify "Cc1cc(C)c(NC(=O)c2nnc(/C=C/C(=O)O)s2)c(=O)[nH]1" by its inhibition
class A

Which inhibition band matches "Cc1cc(C)c(NC(=O)c2nnc(CCCC(=O)O)s2)c(=O)[nH]1" ?
class B

Category of "Cc1cc(-c2cccs2)c(NC(=O)c2nnc(-c3ccccc3C(=O)O)s2)c(=O)[nH]1" , please.
class A

Could you place "Cc1cc(C)c(NC(=O)c2nnc(-c3ccccc3C(=O)O)s2)c(=O)[nH]1" in its proper category? Many thanks.
class B
